- experimental_target: cIAP1 BIR3 (Homo sapiens (Human), UniProt Q13490)
- Sequence (Q13490 256-363): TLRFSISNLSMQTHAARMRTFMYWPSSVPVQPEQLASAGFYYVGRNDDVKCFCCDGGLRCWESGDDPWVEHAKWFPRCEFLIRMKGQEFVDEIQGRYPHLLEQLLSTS
- experiment: cIAP1 BIR3 binding assay (DELFIA), BIR3 domain-SMAC peptide interaction
- study_conditions: BIR3 domain 10 nM, SMAC peptide 10 nM; (S)-isomer (examples 1-34, 38-43) or racemate (examples 35-37); read-out: cIAP1 BIR-3 IC50
Entries and their IC50 values follow.
Provide the reading as a plain figure in nM.

Past entries and their recorded results:
[[record]]
compound = "CNC(C)C(=O)Nc1cc(-c2ncnc3c(C)nn(C)c23)cc(C#Cc2cc(F)c3ncccc3c2)n1 (stereo not shown) [Example 42]"
value_units = "nM"
recorded_measurement = 1

[[record]]
compound = "CNC(C)C(=O)Nc1cc(-c2ncnc3c(C)nn(C)c23)cc(C#Cc2ccn3c(C)ncc3c2)n1 (stereo not shown) [Example 4]"
value_units = "nM"
recorded_measurement = 1

[[record]]
compound = "CNC(C)C(=O)Nc1cc(-c2nc(C)nc3nn(C)c(C)c23)cc(C#Cc2ccc3c(cnn3C)c2)n1 (stereo not shown) [Example 20]"
value_units = "nM"
recorded_measurement = 1


Request: Given the entry CNC(C)C(=O)Nc1cc(-c2cccnc2)cc(C#Cc2ccccc2)n1 (stereo not shown) [Example 34] , report its measured IC50.
Result: 250

Request: // query: CNC(C)C(=O)Nc1cc(-c2nc(C)nc3nn(C)c(C)c23)cc(C#Cc2ccc3c(ccc(=O)n3C)c2)n1 (stereo not shown) [Example 19]
Result: 2

Request: What would you report for CNC(C)C(=O)Nc1cc(-c2ncnc3c(C)nn(C)c23)cc(C#Cc2ccc3c(cnn3C)c2)n1 (stereo not shown) [Example 1] ?
Result: 1

Request: What do we get for CNC(C)C(=O)Nc1cc(-c2cnc3cccc(C)n23)cc(C#Cc2ccc3c(C)nccc3c2)n1 (stereo not shown) [Example 13] ?
Result: 1

Request: // next record CNC(C)C(=O)Nc1cc(-c2cccc3nc(C)c(C)n23)cc(C#Cc2ccc3c(C)nccc3c2)n1 (stereo not shown) [Example 11]
Result: 1

Request: Entry to check: CNC(C)C(=O)Nc1cc(-c2cccc3cnn(C)c23)cc(C#Cc2ccc3c(c2)CC(=O)N3C)n1 (stereo not shown) [Example 12]
Result: 11

Request: Next entry: CNC(C)C(=O)Nc1cc(-c2ccccc2F)cc(C#Cc2ccccc2)n1 (stereo not shown) [Example 32]
Result: 4010

Request: And CNC(C)C(=O)Nc1cc(-c2ncnc3c(C)nn(C)c23)cc(C#Cc2ccc(-n3cnc(C)c3)cc2)n1 (stereo not shown) [Example 41] ?
Result: 1

Request: How about CNC(C)C(=O)Nc1cc(-c2cncc(F)c2)cc(C#Cc2ccccc2)n1 (stereo not shown) [Example 29] ?
Result: 127

Request: Entry CCNC(CC)C(=O)Nc1cc(-c2ncnc3c(C)nn(C)c23)cc(C#Cc2ccc3c(C)nccc3c2)n1 (racemic) [Example 37] please
Result: 6

Request: Please do the same for CNC(C)C(=O)Nc1cc(-c2ncnc3c(C)nn(C)c23)cc(C#Cc2cnc3c(cnn3C)c2)n1 (stereo not shown) [Example 43] as well.
Result: 1

Request: Then what about the compound CNC(C)C(=O)Nc1cc(-c2ccc(OC)nc2)cc(C#Cc2ccccc2)n1 (stereo not shown) [Example 31] ?
Result: 325

Request: Item: CNC(C)C(=O)Nc1cc(-c2ncnc3c(C)nn(C)c23)cc(C#Cc2cc(C)nc(C)c2)n1 (stereo not shown) [Example 39]
Result: 1

Request: Note, next up: CNC(C)C(=O)Nc1cc(-c2ncnc3oc(C)c(C)c23)cc(C#Cc2ccccc2)n1 (stereo not shown) [Example 10]
Result: 2

Request: Query CNC(C)C(=O)Nc1cc(-c2nc(C)nc3nn(C)c(C)c23)cc(C#Cc2cccs2)n1 (stereo not shown) [Example 22] next
Result: 1

Request: Thanks! And CNC(C)C(=O)Nc1cc(-c2nc(C)nc3nn(C)c(C)c23)cc(C#Cc2ccc3c(C)nccc3c2)n1 (stereo not shown) [Example 18] ?
Result: 1
